Test: method code SF, from PMID: 3778562
Endpoint name: logP

Compound	Result value
O=C1C[C@@H](c2ccc(O)c(O)c2)Oc2cc(O)cc(O)c21	2.02
CCCO[C@H]1Cc2c(O)cc(O)cc2O[C@@H]1c1ccc(O)c(O)c1	2.12
O=C(OC1Cc2c(O)cc(O)cc2OC1c1ccc(O)c(O)c1)c1ccc(O)c(O)c1 (centres undefined)	2.45
N#CCCO[C@H]1Cc2c(O)cc(O)cc2O[C@@H]1c1ccc(O)c(O)c1	0.96
CCCCCCCCCCCCCCCC(=O)O[C@H]1Cc2c(O)cc(O)cc2O[C@@H]1c1ccc(O)c(O)c1	8.7
C[C@@H]1O[C@@H](Oc2c(-c3ccc(O)c(O)c3)oc3cc(O)cc(O)c3c2=O)[C@H](O)[C@H](O)[C@H]1O	1.78
NCCCOC1Cc2c(O)cc(O)cc2OC1c1ccc(O)c(O)c1 (centres undefined)	0.52
C[C@@H]1O[C@@H](O[C@H]2[C@H](Oc3cc(O)c4c(c3)O[C@H](c3ccc(O)cc3)CC4=O)O[C@H](CO)[C@@H](O)[C@@H]2O)[C@H](O)[C@H](O)[C@H]1O	-0.44
CCCCCCCCCCCCCCCCCCO[C@H]1Cc2c(O)cc(O)cc2O[C@@H]1c1ccc(O)c(O)c1	9.91
O=C(Nc1ccccc1)OC1Cc2c(O)cc(O)cc2OC1c1ccc(O)c(O)c1 (centres undefined)	3.05
COc1ccc([C@@H]2CC(=O)c3c(O)cc(O)cc3O2)cc1O	2.6
CCCCCCCO[C@H]1Cc2c(O)cc(O)cc2O[C@@H]1c1ccc(O)c(O)c1	4.2
Oc1cc(O)c2c(c1)OC(c1ccc(O)c(O)c1)C(O)C2O (centres undefined)	0.95
O=c1cc(-c2ccc(O)c(O)c2)oc2cccc(O)c12	3.31
CCCCCCCCCC(=O)O[C@H]1Cc2c(O)cc(O)cc2O[C@@H]1c1ccc(O)c(O)c1	5.58
CO[C@H]1Cc2c(O)cc(O)cc2O[C@@H]1c1ccc(O)c(O)c1	1
COc1ccc(-c2oc3cc(O)cc(O)c3c(=O)c2O)cc1	3.97
COc1cc(OC)c2c(c1)O[C@H](c1ccc(OC)c(OC)c1)[C@@H](O)C2	3.1
Oc1cc(O)c2c(c1)O[C@@H](c1ccc(O)c(O)c1)C(OCO[C@@H]1Cc3c(O)cc(O)cc3O[C@H]1c1ccc(O)c(O)c1)C2 (some centres undefined)	2.15

---

Test: method code SF, from PMID: 3778562
In this section, each of the molecules is paired with its reported logP.

Smiles code	logP
COc1ccc(-c2cc(=O)c3c(O)cc(O[C@@H]4O[C@H](CO[C@@H]5O[C@@H](C)[C@H](O)[C@@H](O)[C@H]5O)[C@@H](O)[C@H](O)[C@H]4O)cc3o2)cc1O	0.14
O=c1c(O)c(-c2cccc(O)c2)oc2cc(O)ccc12	2.51
O=C1C[C@@H](c2cccc(O)c2)Oc2cc(O)cc(O)c21	2.51
O=c1cc(-c2ccccc2)oc2cc(O)cc(O)c12	3.52
O=C(O[C@H]1Cc2c(O)cc(O)cc2O[C@@H]1c1ccc(O)c(O)c1)c1ccc(F)cc1	3.64
